Provenance of the data: patent US10533000B2

# system name: UniProtKB P41594
# assay comment: mGluR5 positive allosteric modulator (PAM) functional assay
pEC50: −log10 of the molar value.
metric: pEC50

Consider the following illustrative entries.
>>> recorded_measurement("CCC(c1nc(-c2ccc(C#Cc3ccccn3)cn2)no1)N(C)C (stereo not drawn)")
"7.00 to 7.52"
>>> recorded_measurement("CC(c1nc(-c2ccc(C#Cc3ccccn3)cn2)no1)N(C)C (stereo not drawn)")
"6.52 to 7.00"
>>> recorded_measurement("CN(C)C(C)(C)c1nc(-c2ccc(C#Cc3ccccn3)cn2)no1")
"7.00 to 7.52"

# returns recorded pEC50 (system: UniProtKB P41594) for COC(C)c1nc(-c2ccc(C#Cc3cccc(F)c3)cc2)no1 (stereo not drawn)
6.52 to 7.00

Proceed to CCC(CC)c1nc(-c2ccc(C#Cc3cccc(F)c3)cc2)no1
6.52 to 7.00

Proceed to CN1CCCC1c1nc(-c2ccc(C#Cc3ccccn3)cc2)no1 (stereo not drawn)
≥ 7.52

Proceed to CCC(OC)c1nc(-c2ccc(C#Cc3ccncc3)cc2)no1 (stereo not drawn)
7.00 to 7.52

Proceed to CC(C)NC(C)c1nc(-c2ccc(C#Cc3cccc(F)c3)cn2)no1 (stereo not drawn)
7.00 to 7.52

Proceed to CN1CCCC1c1nc(-c2ccc(C#Cc3ccncc3)cc2)no1 (stereo not drawn)
≥ 7.52

---

Collected pEC50 values appear next to each entry.
# system name: mGluR5 (Homo sapiens, UniProt P41594)
# Sequence (P41594 21-1212): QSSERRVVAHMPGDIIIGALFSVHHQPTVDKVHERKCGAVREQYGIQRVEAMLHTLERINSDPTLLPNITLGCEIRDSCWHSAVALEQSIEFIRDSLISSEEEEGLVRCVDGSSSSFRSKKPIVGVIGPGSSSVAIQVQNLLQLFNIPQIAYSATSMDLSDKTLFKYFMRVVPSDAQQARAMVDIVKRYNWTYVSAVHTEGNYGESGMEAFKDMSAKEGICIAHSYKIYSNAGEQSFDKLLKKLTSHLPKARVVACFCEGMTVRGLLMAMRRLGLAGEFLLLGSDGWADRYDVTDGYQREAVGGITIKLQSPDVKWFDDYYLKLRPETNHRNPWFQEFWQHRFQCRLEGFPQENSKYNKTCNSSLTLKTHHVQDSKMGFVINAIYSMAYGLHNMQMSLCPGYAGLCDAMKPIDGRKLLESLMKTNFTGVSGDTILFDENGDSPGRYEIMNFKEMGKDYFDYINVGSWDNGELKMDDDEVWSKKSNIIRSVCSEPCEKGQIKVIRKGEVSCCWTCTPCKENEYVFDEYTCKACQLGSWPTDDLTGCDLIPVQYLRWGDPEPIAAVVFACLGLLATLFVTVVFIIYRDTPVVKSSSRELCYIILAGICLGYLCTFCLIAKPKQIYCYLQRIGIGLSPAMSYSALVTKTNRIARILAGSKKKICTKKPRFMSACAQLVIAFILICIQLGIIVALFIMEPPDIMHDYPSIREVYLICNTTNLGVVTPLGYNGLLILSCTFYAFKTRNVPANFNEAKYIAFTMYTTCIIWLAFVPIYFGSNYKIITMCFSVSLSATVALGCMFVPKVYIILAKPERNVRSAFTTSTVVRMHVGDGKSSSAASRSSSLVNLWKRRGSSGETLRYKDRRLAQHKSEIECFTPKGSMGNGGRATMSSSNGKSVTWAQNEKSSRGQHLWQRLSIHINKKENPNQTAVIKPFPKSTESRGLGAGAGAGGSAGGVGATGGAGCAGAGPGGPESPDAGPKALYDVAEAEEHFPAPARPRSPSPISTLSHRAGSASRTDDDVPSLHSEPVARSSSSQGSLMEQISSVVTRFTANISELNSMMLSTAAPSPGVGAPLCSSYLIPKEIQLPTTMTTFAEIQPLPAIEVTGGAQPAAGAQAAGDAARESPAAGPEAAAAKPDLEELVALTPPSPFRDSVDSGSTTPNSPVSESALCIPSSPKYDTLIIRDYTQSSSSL
# assay comment: mGluR5 positive allosteric modulator (PAM) functional assay
pEC50: −log10 of the molar value.

>>> recorded_measurement("CCC(CC)c1nnc(-c2ccc(C#Cc3cccc(F)c3)cc2)o1")
"7.00 to 7.52"
>>> recorded_measurement("CC(C)(C)c1noc(-c2ccc(C#Cc3cccc(F)c3)cc2)n1")
"6.00 to 6.52"
>>> recorded_measurement("CCC(OC)c1nc(-c2ccc(C#Cc3ccncc3)cn2)no1 (stereo not shown)")
"7.00 to 7.52"
>>> recorded_measurement("CNC(C)(C)c1nc(-c2ccc(C#Cc3ccccn3)cn2)no1")
"6.00 to 6.52"
>>> recorded_measurement("Fc1cccc(C#Cc2ccc(-c3noc(C4CCCC4)n3)nc2)c1")
"≥ 7.52"
>>> recorded_measurement("CCC(OC)c1nc(-c2ccc(C#Cc3ccccn3)cn2)no1 (stereo not shown)")
"6.52 to 7.00"
>>> recorded_measurement("CC(c1nnc(-c2ccc(C#Cc3ccccn3)cn2)n1C)N1CCCC1 (stereo not shown)")
"6.52 to 7.00"
>>> recorded_measurement("CC(C)Cc1nc(-c2ccc(C#Cc3cccc(F)c3)cc2)no1")
"6.00 to 6.52"
>>> recorded_measurement("C(#Cc1ccccn1)c1ccc(-c2noc(C3CC4CCN3C4)n2)nc1 (stereo not shown)")
"6.52 to 7.00"
>>> recorded_measurement("CN1CCC1c1nc(-c2ccc(C#Cc3cccc(F)c3)cn2)no1 (stereo not shown)")
"7.00 to 7.52"

Bench note: what pEC50 did COCCc1nc(-c2ccc(C#Cc3cccc(F)c3)cc2)no1 show?
6.00 to 6.52

Proceed to C(#Cc1ccccn1)c1ccc(-c2noc(C34CCCN3CCC4)n2)nc1
7.00 to 7.52

Proceed to CC(c1nc(-c2ccc(C#Cc3ccccn3)cn2)no1)N1CCCC1 (stereo not shown)
7.00 to 7.52

Proceed to C(#Cc1ccc(-c2noc(C3CCCN3)n2)cc1)c1ccncc1 (stereo not shown)
6.52 to 7.00

Proceed to C=C1CN[C@H](c2nc(-c3ccc(C#Cc4cccc(F)c4)cn3)no2)C1
6.52 to 7.00

---

# system name: mGluR5 (Homo sapiens, UniProt P41594)
# assay comment: mGluR5 positive allosteric modulator (PAM) functional assay
metric: EC50

>>> recorded_measurement("CCC(C)c1nc(-c2ccc(C#Cc3ccccn3)cn2)no1 (stereo not shown) [Compound 134]")
"0.03 to 0.1 µM"
>>> recorded_measurement("Fc1cccc(C#Cc2ccc(-c3noc(C4CCCC4)n3)cc2)c1 [Compound 32]")
"0.1 to 0.3 µM"
>>> recorded_measurement("COC(C)c1nc(-c2ccc(C#Cc3ccncc3)cc2)no1 (stereo not shown) [Compound 74]")
"≤ 0.03 µM"

# input for lookup
# returns recorded EC50 (system: mGluR5 (Homo sapiens, UniProt P41594)) for CNC(C)(C)c1nc(-c2ccc(C#Cc3cccc(F)c3)cn2)no1 [Compound 112]
≤ 0.03 µM

---

# system name: mGluR5 (Homo sapiens, UniProt P41594)
# assay comment: mGluR5 positive allosteric modulator (PAM) functional assay
# Assay type: cell-based
pEC50: −log10 of the molar value.
Collected pEC50 values appear next to each entry.

Consider the following illustrative entries.
>>> recorded_measurement("C(#Cc1ccccn1)c1ccc(-c2noc(C3CCCN3)n2)nc1 (centres unmarked) [Compound 151]")
"6.00 to 6.52"
>>> recorded_measurement("CN(C)C1(c2nc(-c3ccc(C#Cc4cccc(F)c4)cn3)no2)CC1 [Compound 118]")
"≥ 7.52"
>>> recorded_measurement("CN(C)C(C)(C)c1nc(-c2ccc(C#Cc3cccc(F)c3)cn2)no1 [Compound 113]")
"≥ 7.52"
>>> recorded_measurement("CC(C)NC(C)c1nc(-c2ccc(C#Cc3ccccn3)cn2)no1 (centres unmarked) [Compound 140]")
"6.52 to 7.00"

# input for lookup
Bench note: what pEC50 did CN1C[C@H](F)C[C@@H]1c1nc(-c2ccc(C#Cc3ccccn3)cn2)no1 [Compound 169] show?
6.00 to 6.52

---

Collected EC50 values appear next to each entry.
# system name: UniProt:P41594
# assay comment: mGluR5 positive allosteric modulator (PAM) functional assay
# Assay type: cell-based

>>> recorded_measurement("CCC(C)c1nc(-c2ccc(C#Cc3ccncc3)cc2)no1 (stereo not shown)")
"100 to 300 nM"
>>> recorded_measurement("COC(C)c1nc(-c2ccc(C#Cc3ccncc3)cn2)no1 (stereo not shown)")
"100 to 300 nM"
>>> recorded_measurement("CN1CC[C@@H]2C[C@@]21c1nc(-c2ccc(C#Cc3ccccn3)cn2)no1")
"300 to 1000 nM"
>>> recorded_measurement("CC(NC1CC1)c1nc(-c2ccc(C#Cc3cccc(F)c3)cn2)no1 (stereo not shown)")
"≤ 30 nM"
>>> recorded_measurement("CCC(CC)c1nc(-c2ccc(C#Cc3ccncc3)nc2)no1")
"≤ 30 nM"
>>> recorded_measurement("CN(C)Cc1nc(-c2ccc(C#Cc3cccc(F)c3)cn2)no1")
"30 to 100 nM"

# input for lookup
Bench note: what EC50 did CCC(CC)c1nnc(-c2ccc(C#Cc3ccncc3)cc2)o1 show?
30 to 100 nM

---

Collected pEC50 values appear next to each entry.
# system name: mGluR5 (Homo sapiens)
# assay comment: mGluR5 positive allosteric modulator (PAM) functional assay
pEC50: −log10 of the molar value.

Consider the following illustrative entries.
>>> recorded_measurement("CCC(NC1CC1)c1nc(-c2ccc(C#Cc3cccc(F)c3)cn2)no1 (stereo not shown) [Compound 117]")
"≥ 7.52"
>>> recorded_measurement("CCC(C)c1nnc(-c2ccc(C#Cc3cccc(F)c3)cc2)o1 (stereo not shown) [Compound 2]")
"6.52 to 7.00"
>>> recorded_measurement("COC(C)c1nc(-c2ccc(C#Cc3ccncc3)nc2)no1 (stereo not shown) [Compound 92]")
"6.52 to 7.00"

# input for lookup
Bench note: what pEC50 did Fc1cccc(C#Cc2ccc(-c3noc(C4CCCN4C4CCC4)n3)nc2)c1 (stereo not shown) [Compound 126] show?
7.00 to 7.52

---

# system name: mGluR5 (Homo sapiens, UniProt P41594)
# assay comment: mGluR5 positive allosteric modulator (PAM) functional assay
pEC50: −log10 of the molar value.
metric: pEC50

Consider the following illustrative entries.
>>> recorded_measurement("CCC(OC)c1nc(-c2ccc(C#Cc3cccc(F)c3)cn2)no1 (stereo not drawn)")
"≥ 7.52"
>>> recorded_measurement("C[C@@H](c1nc(-c2ccc(C#Cc3cccc(F)c3)cn2)no1)N(C)C")
"≥ 7.52"
>>> recorded_measurement("Fc1cccc(C#Cc2ccc(-c3noc(C4CCCN4C4CCC4)n3)cc2)c1 (stereo not drawn)")
"6.00 to 6.52"
>>> recorded_measurement("CC(c1nc(-c2ccc(C#Cc3ccccn3)cn2)no1)N1CCCC1(C)C (stereo not drawn)")
"7.00 to 7.52"
>>> recorded_measurement("CCC(C)c1nc(-c2ccc(C#Cc3ccncc3)nc2)no1 (stereo not drawn)")
"≥ 7.52"

# returns recorded pEC50 (system: mGluR5 (Homo sapiens, UniProt P41594)) for CN1CC(F)(F)C[C@H]1c1nc(-c2ccc(C#Cc3ccccn3)cn2)no1
6.52 to 7.00

Proceed to CN1CCC1c1nc(-c2ccc(C#Cc3ccccn3)cn2)no1 (stereo not drawn)
6.00 to 6.52

Proceed to CC(c1nc(-c2ccc(C#Cc3cccc(F)c3)cn2)no1)N1CCCC1 (stereo not drawn)
≥ 7.52
